Answer each item with its documented IC50.
- experimentalSystem: TRPA1 (Homo sapiens, UniProt O75762)
- Sequence (O75762 whole entry): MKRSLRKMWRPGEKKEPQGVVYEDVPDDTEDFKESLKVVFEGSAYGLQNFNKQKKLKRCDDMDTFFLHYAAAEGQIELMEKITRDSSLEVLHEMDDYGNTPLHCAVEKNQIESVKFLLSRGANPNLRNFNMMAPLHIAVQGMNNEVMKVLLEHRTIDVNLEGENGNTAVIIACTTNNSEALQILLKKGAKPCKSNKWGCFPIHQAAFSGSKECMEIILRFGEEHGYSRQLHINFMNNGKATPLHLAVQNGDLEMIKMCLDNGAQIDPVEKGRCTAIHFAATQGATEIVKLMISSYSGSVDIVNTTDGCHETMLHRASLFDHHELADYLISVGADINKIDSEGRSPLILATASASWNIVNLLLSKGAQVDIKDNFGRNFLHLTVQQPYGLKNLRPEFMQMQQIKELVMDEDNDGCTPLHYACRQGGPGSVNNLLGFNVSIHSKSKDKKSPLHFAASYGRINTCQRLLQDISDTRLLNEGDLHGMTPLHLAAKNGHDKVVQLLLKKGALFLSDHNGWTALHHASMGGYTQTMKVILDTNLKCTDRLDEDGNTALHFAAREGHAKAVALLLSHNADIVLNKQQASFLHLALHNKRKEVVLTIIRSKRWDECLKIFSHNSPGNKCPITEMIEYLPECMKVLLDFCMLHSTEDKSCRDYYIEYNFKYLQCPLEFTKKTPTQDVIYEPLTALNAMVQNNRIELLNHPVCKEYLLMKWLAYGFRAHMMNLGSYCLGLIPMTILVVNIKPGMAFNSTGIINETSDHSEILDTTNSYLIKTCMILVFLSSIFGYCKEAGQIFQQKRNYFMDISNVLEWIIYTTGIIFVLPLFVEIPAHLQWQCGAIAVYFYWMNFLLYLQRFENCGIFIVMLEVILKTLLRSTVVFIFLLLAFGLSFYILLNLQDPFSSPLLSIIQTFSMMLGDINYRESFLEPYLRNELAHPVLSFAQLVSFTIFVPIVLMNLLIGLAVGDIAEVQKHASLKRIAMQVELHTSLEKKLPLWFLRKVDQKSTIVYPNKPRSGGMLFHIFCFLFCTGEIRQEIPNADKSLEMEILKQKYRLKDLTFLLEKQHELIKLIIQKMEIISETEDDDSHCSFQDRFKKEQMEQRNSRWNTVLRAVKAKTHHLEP
- assayText: Determination of TRPA1 activity in vitro (TRPA1 antagonism in vitro)
- experimentalParameters: procedure of Wei et al., Anesthesiology 111 (2009) 147-154
Express your answer in µM, writing the number without its unit.

// query Tell me its IC50 given C#CC(C)(C)NC(=O)c1cccnc1Nc1ccc(OC)c(Cl)c1 [Example 150] as the entry.
// result 1.9

// query Tell me its IC50 given C#CC(C)(C)NC(=O)c1cc(C)ccc1NCC(F)(F)C(F)(F)F [Example 30] as the entry.
// result 0.3

// query Tell me its IC50 given C#CC(C)(CC(C)C)NC(=O)c1cc(F)c(F)cc1NCC(C)C (stereo not shown) [Example 68] as the entry.
// result 1.1

// query Tell me its IC50 given C#CC(C)(C)NC(=O)c1cccnc1Nc1cccc(OC)c1F [Example 169] as the entry.
// result 34.8

// query Tell me its IC50 given C#CC(C)(C)NC(=O)c1cc(Cl)ccc1NCC(F)F [Example 5] as the entry.
// result 5.1

// query Tell me its IC50 given C#CC(C)(C)NC(=O)c1cccnc1Nc1cc(OC)ccc1F [Example 179] as the entry.
// result 10.8

// query Tell me its IC50 given C#CC(C)(C)NC(=O)c1cc(Cl)cnc1NCCOCC [Example 148] as the entry.
// result 14.9

// query Tell me its IC50 given C#CC(C)(C)NC(=O)c1cc(F)c(F)cc1NC1CC1 [Example 86] as the entry.
// result 2.2

// query Tell me its IC50 given C#CC(C)(C)NC(=O)c1cnc(C(F)(F)F)nc1NCCC(F)(F)F [Example 11] as the entry.
// result 3.7

// query Tell me its IC50 given C#CC(C)(C)NC(=O)c1cccc(F)c1NCCC(F)(F)F [Example 15] as the entry.
// result 3

---

- experimentalSystem: TRPA1 (Homo sapiens)
- assayText: Determination of TRPA1 activity in vitro (TRPA1 antagonism in vitro)
- experimentalParameters: procedure of Wei et al., Anesthesiology 111 (2009) 147-154
endpointLabel: IC50 (nM)
Express your answer in nM, writing the number without its unit.

// query Tell me its IC50 given C#CC(C)(C)NC(=O)c1cscc1NCCC [Example 126] as the entry.
// result 8000

// query Tell me its IC50 given C#CC(C)(C)NC(=O)c1cc(F)cnc1Nc1ccccc1 [Example 160] as the entry.
// result 1400

// query Tell me its IC50 given C#CC(C)(CC)NC(=O)c1cccnc1Nc1cc(F)cc(F)c1 (stereo not shown) [Example 186] as the entry.
// result 200

// query Tell me its IC50 given C#CC(C)(C)NC(=O)c1ccc(C(F)(F)F)cc1NCCOC [Example 89] as the entry.
// result 8600

// query Tell me its IC50 given C#CC(C)(C)NC(=O)c1cc(Cl)cnc1NCCCOCC [Example 146] as the entry.
// result 5900

// query Tell me its IC50 given C#CC(C)(CC)NC(=O)c1cc(Cl)cnc1NC1CC(F)(F)C1 (stereo not shown) [Example 177] as the entry.
// result 300

// query Tell me its IC50 given C#CC(C)(C)NC(=O)c1ccccc1NCCCC [Example 64] as the entry.
// result 1500

// query Tell me its IC50 given C#CC(C)(C)NC(=O)c1cccnc1Nc1ccc(F)cc1 [Example 131] as the entry.
// result 1400

// query Tell me its IC50 given C#CC(C)(C)NC(=O)c1cc(C(F)(F)F)cnc1NCCC(F)F [Example 58] as the entry.
// result 1100

// query Tell me its IC50 given C#CC(C)(C)NC(=O)c1cc(F)cnc1Nc1ccc(F)cc1 [Example 157] as the entry.
// result 700

// query Tell me its IC50 given C#CC(C)(CC)NC(=O)c1cccnc1Nc1cc(OC)ccc1Cl (stereo not shown) [Example 189] as the entry.
// result 3000

// query Tell me its IC50 given C#CC(C)(C)NC(=O)c1cc(F)ccc1NCCOC(F)(F)F [Example 53] as the entry.
// result 1900

// query Tell me its IC50 given C#CC(C)(C)NC(=O)c1cc(F)ccc1NC(C)C [Example 92] as the entry.
// result 12300

// query Tell me its IC50 given C#CC(C)(CC)NC(=O)c1cccnc1Nc1ccc(F)c(OC)c1 (stereo not shown) [Example 194] as the entry.
// result 1600

// query Tell me its IC50 given C#CC(C)(C)NC(=O)c1cc(F)c(F)cc1NCC(F)(F)F [Example 38] as the entry.
// result 2500

// query Tell me its IC50 given C#CC(C)(C)NC(=O)c1cc(C(F)(F)F)ccc1NCCOC [Example 48] as the entry.
// result 5700

// query Tell me its IC50 given C#CC(C)(C)NC(=O)c1cc(C(F)(F)F)ccc1NC1CCC1 [Example 23] as the entry.
// result 100

// query Tell me its IC50 given C#CC(C)(C)NC(=O)c1cccnc1Nc1cc(OC)ccc1Cl [Example 188] as the entry.
// result 16700

// query Tell me its IC50 given C#CC(C)(C)NC(=O)c1ccc(C(F)(F)F)cc1NCCC(F)(F)F [Example 72] as the entry.
// result 500

// query Tell me its IC50 given C#CC(C)(C)NC(=O)c1cc(F)ccc1NC1CCC1 [Example 24] as the entry.
// result 1300

// query Tell me its IC50 given C#CC(C)(C)NC(=O)c1cccnc1NCCc1ccccc1 [Example 142] as the entry.
// result 5800

// query Tell me its IC50 given C#CC(C)(C)NC(=O)c1cc(F)c(F)cc1NCCC [Example 63] as the entry.
// result 3100

// query Tell me its IC50 given C#CC(C)(C)NC(=O)c1cc(Cl)cnc1NC1CCC1 [Example 27] as the entry.
// result 700

// query Tell me its IC50 given C#CC(C)(C)NC(=O)c1cc(C(F)(F)F)ccc1NCC(F)(F)C(F)(F)F [Example 18] as the entry.
// result 300

// query Tell me its IC50 given C#CC(C)(CC)NC(=O)c1cccnc1Nc1ccc(Cl)c(OC)c1 (stereo not shown) [Example 197] as the entry.
// result 700

// query Tell me its IC50 given C#CC(C)(C)NC(=O)c1cc(Cl)cnc1NCCC(F)F [Example 60] as the entry.
// result 1800

// query Tell me its IC50 given C#CC(C)(CC)NC(=O)c1cccnc1NC1CCC(F)(F)CC1 (stereo not shown) [Example 191] as the entry.
// result 600

// query Tell me its IC50 given C#CC(C)(C)NC(=O)c1cc(Cl)ccc1NC(C)C [Example 4] as the entry.
// result 4700

// query Tell me its IC50 given C#CC(C)(CC)NC(=O)c1cc(F)cnc1Nc1ccccc1 (stereo not shown) [Example 172] as the entry.
// result 300

// query Tell me its IC50 given C#CC(C)(C)NC(=O)c1cc(F)c(F)cc1NCC(C)(C)C [Example 61] as the entry.
// result 800

// query Tell me its IC50 given C#CC(C)(C)NC(=O)c1cc(Cl)ccc1NCCC [Example 3] as the entry.
// result 1100

// query Tell me its IC50 given C#CC(C)(C)NC(=O)c1cc2c(cc1NCC(C)C)OCCO2 [Example 9] as the entry.
// result 11200

// query Tell me its IC50 given C#CC(C)(C)NC(=O)c1cc(F)cnc1Nc1ccc(C2CCCC2)nc1 [Example 140] as the entry.
// result 5500

// query Tell me its IC50 given C#CC(C)(C)NC(=O)c1cc(Cl)cnc1NC(C)C [Example 26] as the entry.
// result 3300

// query Tell me its IC50 given C#CC(C)(C)NC(=O)c1cccnc1NCc1cccc(OC)c1 [Example 97] as the entry.
// result 14000

// query Tell me its IC50 given C#CC(C)(C)NC(=O)c1cc(C(F)(F)F)cnc1NCC(F)F [Example 56] as the entry.
// result 1600

// query Tell me its IC50 given C#CC(C)(C)NC(=O)c1cccnc1Nc1cc(F)cc(C#N)c1 [Example 183] as the entry.
// result 1400

// query Tell me its IC50 given C#CC(C)(C)NC(=O)c1cc(F)ccc1NCCCC(F)(F)F [Example 54] as the entry.
// result 1200

// query Tell me its IC50 given C#CC(C)(C)NC(=O)c1ccc(C(F)(F)F)cc1NC [Example 84] as the entry.
// result 7500

// query Tell me its IC50 given C#CC(C)(C)NC(=O)c1cc(F)cnc1NCC(F)(F)F [Example 33] as the entry.
// result 3000
